Assay: NCI Yeast Anticancer Drug Screen. Data for the rad50 strain (AID 155);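 also: 0% = growth of vehicle-only cultures of the same strain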
Conditions: S. cerevisiae rad50 strain growth inhibition; at 50.0 µM (retest, dose inferred, filed as 5.0); stronger effect = higher value
About 79,000 compounds went through this panel and 15% of them were active in at least one assay; those are over-represented in the sample as a whole. Activity calls are given as the source filed them. Rule as the data show it: active = growth inhibition above about 70%; inactive = the rest.
This listing pairs molecules with measured growth inhibition.

Some entries whose results are on file:
{"columns": ["MOLECULE", "VALUE TYPE", "ENDPOINT VALUE"],
 "data": [
  ["O=C1CCCC1Cl (stereo unspecified)", "growth inhibition", "3% (inactive)"],
  ["CCCCCc1cc(/C=C2/N=C(c3ccc[nH]3)C=C2OC)[nH]c1C", "growth inhibition", "77% (active)"]
]}

Query: If you can, please state the reported growth inhibition value of COc1cc(/C=C(/C)[N+](=O)[O-])ccc1O .
Result: 99% (active)

Query: Which growth inhibition value belongs to N#CC(C#N)=NNc1cccc(Cl)c1Cl ?
Result: 73% (active)

Query: Please give the measured growth inhibition for this molecule: N#CC(C#N)=Cc1ccc(Cl)o1
Result: 54% (inactive)

Query: Fill in the blank: the reported growth inhibition of Nc1nc(N)c(-c2ccc(Cl)c(Cl)c2)c(COc2ccc(CNC(=O)Nc3cccc(S(=O)(=O)F)c3)cc2Cl)n1 is ____.
Result: 11% (inactive)

All figures here come from PubChem BioAssay (NCI).
